// provenance: patent US11021444B2

Recorded EC50 by entry
# Tested on: Respiratory Syncytial Virus (RSV) long strain
# assay-protocol: microbe, parasite or virus in culture
# Assay type: cell-based
# condition-details: human respiratory syncytial virus, HEp-2, 120 h, read-out: 50% effective concentration (EC50), HEp-2 cells infected with RSV long strain, 5 days, CCK-8 readout; Tables A and B list compounds by EC50 band

Recorded results for 6 compounds are shown here.
COc1cc(C(=O)NC[C@@](O)(c2cc(C(C)(C)N)cc(-c3ccc(F)c(Cl)c3)n2)C(F)(F)F)ccc1OC[C@@H](C)O : < 1000 nM
COc1cc(C(=O)NCC(O)(c2ccc(OC)c(-c3ccc(F)c(Cl)c3)n2)C(F)F)ccc1OCCO (stereo not shown) : < 1000 nM
COc1cc(C(=O)NCC(O)(c2ccc(OC)c(-c3ccc(F)cc3)n2)C(F)(F)F)ccc1OCCO (stereo not shown) : < 1000 nM
COc1cc(C(=O)NCC(O)(c2cc3c(c(-c4ccc(F)c(Cl)c4)n2)OCC3(C)N)C(F)(F)F)ccc1OCCO (stereo not shown) : < 1000 nM
Cc1nc(C(=O)NCC(O)(c2cc(C(C)(C)N)cc(-c3ccc(F)c(Cl)c3)n2)C(F)(F)F)cs1 (stereo not shown) : 1000 to 50000 nM
COc1ccc(C(=O)NCC(OC)c2cccc(-c3csc4c(F)cccc34)n2)cc1OC (stereo not shown) : 1000 to 50000 nM

Looking up COc1cc(C(=O)NCC(O)(c2cc(CN)cc(-c3ccc(F)cc3)n2)C(F)(F)F)ccc1OC1CC1 (stereo not shown) , I see its EC50 listed as < 1000 nM

Looking up COc1cc(C(=O)NCC(O)(c2cc(C(C)(C)N)cc(-c3ccc(F)c(Cl)c3)n2)C(F)(F)F)ccc1OCC(N)=O (stereo not shown) , I see its EC50 listed as < 1000 nM

Looking up COc1cc(C(=O)NCC(O)(c2cc(C(C)(C)N)cc(-c3ccc(F)c(Cl)c3)n2)C(F)(F)F)ccc1OC1CC(F)C1 (stereo not shown) , I see its EC50 listed as < 1000 nM

Looking up COc1cc(C(=O)NCC(F)(c2ccc(OC)c(-c3ccc(F)c(Cl)c3)n2)C2CC2)ccc1OCCO (stereo not shown) , I see its EC50 listed as < 1000 nM

Looking up COc1cc(C(=O)NCC(O)(c2cc(C(C)(C)N)cc(-c3ccc(F)c(Cl)c3)n2)C(F)(F)F)ccc1OCCOC(=O)C(C)C (stereo not shown) , I see its EC50 listed as < 1000 nM

Looking up CNc1ccc(C(O)(CNC(=O)c2ccc(OC3CC3)c(OC)c2)C(F)(F)F)nc1-c1ccc(F)c(Cl)c1 (stereo not shown) , I see its EC50 listed as < 1000 nM
